Assay: total protein half-life in vivo (active degradation + dilution); higher = more stable protein
Details: wild type E. coli NCM3722; growth: C-lim chemostat; doubling time 12 h
total protein half-life in vivo by entry:

chain: MTETIKVSESLELHAVAENHVKPLYQLICKNKTWLQQSLNWPQFVQSEEDTRKTVQGNVMLHQRGYAKMFMIFKEDELIGVISFNRIEPLNKTAEIGYWLDESHQGQGIISQALQALIHHYAQSGELRRFVIKCRVDNPQSNQVALRNGFILEGCLKQAEFLNDAYDDVNLYARIIDSQ
total protein half-life in vivo, h: 8.82
//
chain: MQEIMQFVGRHPILSIAWIALLVAVLVTTFKSLTSKVKVITRGEATRLINKEDAVVVDLRQRDDFRKGHIAGSINLLPSEIKANNVGELEKHKDKPVIVVDGSGMQCQEPANALTKAGFAQVFVLKEGVAGWAGENLPLVRGK [P0AG27]
total protein half-life in vivo, h: 10.9
//
chain: MLDLFKAIGLGLVVLLPLANPLTTVALFLGLAGNMNSAERNRQSLMASVYVFAIMMVAYYAGQLVMDTFGISIPGLRIAGGLIVAFIGFRMLFPQQKAIDSPEAKSKSEELEDEPSANIAFVPLAMPSTAGPGTIAMIISSASTVRQSSTFADWVLMVAPPLIFFLVAVILWGSLRSSGAIMRLVGKGGIEAISRLMGFLLVCMGVQFIINGILEIIKTYH [P0AEY1]
total protein half-life in vivo, h: 11.1
//
chain: MKTALLLEKLEGQLATLRQRCAPVSQFATLSARFDRHLFQTRATTLQACLDEAGDNLAALRHAVEQQQLPQVAWLAEHLAAQLEAIAREASAWSLREWDSAPPKIARWQRKRIQHQDFERRLREMVAERRARLARVTDLVEQQTLHREVEAYEARLARCRHALEKIENRLARLTR
total protein half-life in vivo, h: 6.06

* * *

Assay: total protein half-life in vivo (active degradation + dilution); higher = more stable protein
Settings: wild type E. coli NCM3722; growth: C-lim chemostat; doubling time 12 h

chain: MSTLEPAAQSKPPGGFKLWLSQLQMKHGRKLVIALPYIWLILLFLLPFLIVFKISLAEMARAIPPYTELMEWADGQLSITLNLGNFLQLTDDPLYFDAYLQSLQVAAISTFCCLLIGYPLAWAVAHSKPSTRNILLLLVILPSWTSFLIRVYAWMGILKNNGVLNNFLLWLGVIDQPLTILHTNLAVYIGIVYAYVPFMVLPIYTALIRIDYSLVEAALDLGARPLKTFFTVIVPLTKGGIIAGSMLVFIPAVGEFVIPELLGGPDSIMIGRVLWQEFFNNRDWPVASAVAIIMLLLLIVPIMWFHKHQQKSVGEHG
total protein half-life in vivo, h: 12
//
chain: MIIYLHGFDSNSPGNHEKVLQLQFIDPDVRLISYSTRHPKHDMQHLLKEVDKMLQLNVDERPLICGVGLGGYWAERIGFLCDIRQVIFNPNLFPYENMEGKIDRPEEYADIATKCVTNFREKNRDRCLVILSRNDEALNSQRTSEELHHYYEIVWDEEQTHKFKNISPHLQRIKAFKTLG [P0A8E1]
total protein half-life in vivo, h: 7.7

* * *

Assay: total protein half-life in vivo (active degradation + dilution); higher = more stable protein
Details: wild type E. coli NCM3722; growth: C-lim chemostat; doubling time 6 h

chain: MSHPALTQLRALRYCKEIPALDPQLLDWLLLEDSMTKRFEQQGKTVSVTMIREGFVEQNEIPEELPLLPKESRYWLREILLCADGEPWLAGRTVVPVSTLSGPELALQKLGKTPLGRYLFTSSTLTRDFIEIGRDAGLWGRRSRLRLSGKPLLLTELFLPASPLY
total protein half-life in vivo [h]: 4.27
--
chain: MIKVLIVDDEPLARENLRVFLQEQSDIEIVGECSNAVEGIGAVHKLRPDVLFLDIQMPRISGLEMVGMLDPEHRPYIVFLTAFDEYAIKAFEEHAFDYLLKPIDEARLEKTLARLRQERSKQDVSLLPENQQALKFIPCTGHSRIYLLQMKDVAFVSSRMSGVYVTSHEGKEGFTELTLRTLESRTPLLRCHRQYLVNLAHLQEIRLEDNGQAELILRNGLTVPVSRRYLKSLKEAIGL [P0AFT5]
total protein half-life in vivo [h]: 5.55

* * *

Assay: total protein half-life in vivo (active degradation + dilution); higher = more stable protein
Details: wild type E. coli NCM3722; growth: C-lim chemostat; doubling time 6 h

chain: MNNTPRYPQRVRNDLRFRELTVLRVERISAGFQRIVLGGEALDGFTSRGFDDHSKLFFPQPDAHFVPPTVTEEGIVWPEGPRPPSRDYTPLYDELRHELAIDFFIHDGGVASGWAMQAQPGDKLTVAGPRGSLVVPEDYAYQLYVCDESGMPALRRRLETLSKLAVKPQVSALVSVRDNACQDYLAHLDGFNIEWLAHDEQAVDARLAQMQIPADDYFIWITGEGKVVKNLSRRFEAEQYDPQRVRAAAYWHAK
total protein half-life in vivo / h: 6.21
//
chain: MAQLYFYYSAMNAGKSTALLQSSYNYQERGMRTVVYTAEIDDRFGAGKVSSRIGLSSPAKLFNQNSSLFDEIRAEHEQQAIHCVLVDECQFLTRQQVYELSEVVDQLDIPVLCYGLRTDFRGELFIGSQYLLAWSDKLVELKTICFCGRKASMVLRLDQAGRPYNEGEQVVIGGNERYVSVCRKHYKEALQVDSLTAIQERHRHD
total protein half-life in vivo / h: 4.98
//
chain: MSFELPALPYAKDALAPHISAETIEYHYGKHHQTYVTNLNNLIKGTAFEGKSLEEIIRSSEGGVFNNAAQVWNHTFYWNCLAPNAGGEPTGKVAEAIAASFGSFADFKAQFTDAAIKNFGSGWTWLVKNSDGKLAIVSTSNAGTPLTTDATPLLTVDVWEHAYYIDYRNARPGYLEHFWALVNWEFVAKNLAA [P0AGD3]
total protein half-life in vivo / h: 5.96
//
chain: MDFNLNDEQELFVAGIRELMASENWEAYFAECDRDSVYPERFVKALADMGIDSLLIPEEHGGLDAGFVTLAAVWMELGRLGAPTYVLYQLPGGFNTFLREGTQEQIDKIMAFRGTGKQMWNSAITEPGAGSDVGSLKTTYTRRNGKIYLNGSKCFITSSAYTPYIVVMARDGASPDKPVYTEWFVDMSKPGIKVTKLEKLGLRMDSCCEITFDDVELDEKDMFGREGNGFNRVKEEFDHERFLVALTNYGTAMCAFEDAARYANQRVQFGEAIGRFQLIQEKFAHMAIKLNSMKNMLYEAAWKADNGTITSGDAAMCKYFCANAAFEVVDSAMQVLGGVGIAGNHRISRFWRDLRVDRVSGGSDEMQILTLGRAVLKQYR
total protein half-life in vivo / h: 3.58
//
chain: MFDIGFSELLLVFIIGLVVLGPQRLPVAVKTVAGWIRALRSLATTVQNELTQELKLQEFQDSLKKVEKASLTNLTPELKASMDELRQAAESMKRSYVANDPEKASDEAHTIHNPVVKDNEAAHEGVTPAAAQTQASSPEQKPETTPEPVVKPAADAEPKTAAPSPSSSDKP
total protein half-life in vivo / h: 4.41
//
chain: MLNIVLYEPEIPPNTGNIIRLCANTGFRLHIIEPMGFAWDDKRLRRAGLDYHEFTAVTRHHDYRAFLEAENPQRLFALTTKGTPAHSAVSYQDGDYLMFGPETRGLPASILDALPAEQKIRIPMVPDSRSMNLSNAVSVVVYEAWRQLGYPGAVLRD [P0AGJ7]
total protein half-life in vivo / h: 6.26

* * *

# maps each entry to its total protein half-life in vivo
Assay: total protein half-life in vivo (active degradation + dilution); higher = more stable protein
Details: E. coli NCM3722 delta-clpP; growth: N-lim chemostat; doubling time 6 h
experimental_readout: total protein half-life in vivo (h)

chain: MDYVCSVVFICQSFDLIINRRVISFKKNSLFIVSDKIRRELPVCPSKLRIVDIDKKTCLSFFIDVNNELPGKFTLDKNGYIAEEEPPLSLVFSLFEGIKIADSHSLWLKERLCISLLAMFKKRESVNSFILTNINTFTCKITGIISFNIERQWHLKDIAELIYTSESLIKKRLRDEGTSFTEILRDTRMRYAKKLITSNSYSINVVAQKCGYNSTSYFICAFKDYYGVTPSHYFEKIIGVTDGINKTID
endpoint_value: 3.62
//
chain: MDIIFYHPTFDTQWWIEALRKAIPQARVRAWKSGDNDSADYALVWHPPVEMLAGRDLKAVFALGAGVDSILSKLQAHPEMLNPSVPLFRLEDTGMGEQMQEYAVSQVLHWFRRFDDYRIQQNSSHWQPLPEYHREDFTIGILGAGVLGSKVAQSLQTWRFPLRCWSRTRKSWPGVQSFAGREELSAFLSQCRVLINLLPNTPETVGIINQQLLEKLPDGAYLLNLARGVHVVEDDLLAALDSGKVKGAMLDVFNREPLPPESPLWQHPRVTITPHVAAITRPAEAVEYISRTIAQLEKGERVCGQVDRARGY
endpoint_value: 4.58
